# Tested on: hTERT-HMEC;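 also: secreted proteins added to cultured cells, EdU pulse at the end, nuclei found by Hoechst imaging, EdU status from nuclear versus surrounding ring intensity ratio, PBS as neutral control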
# TEST NAME: percentage of EdU-negative (G0-arrested) nuclei per well, 72 h; higher = more G0 arrest
# APPLIED CONDITIONS: protein concentration 0.0225 µM; reference: sequence is the full UniProt precursor, the tested protein was the secreted form or ectodomain
MEASURED QUANTITY: percentage of EdU-negative (%)
Supply the numeric figure in %, leaving out any unit text.

In plain terms, MGLWGQSVPTASSARAGRYPGARTASGTRPWLLDPKILKFVVFIVAVLLPVRVDSATIPRQDEVPQQTVAPQQQRRSLKEEECPAGSHRSEYTGACNPCTEGVDYTIASNNLPSCLLCTVCKSGQTNKSSCTTTRDTVCQCEKGSFQDKNSPEMCRTCRTGCPRGMVKVSNCTPRSDIKCKNESAASSTGKTPAAEETVTTILGMLASPYHYLIIIVVLVIILAVVVVGFSCRKKFISYLKGICSGGGGGPERVHRVLFRRRSCPSRVPGAEDNARNETLSNRYLQPTQVSEQEIQGQELAELTGVTVELPEEPQRLLEQAEAEGCQRRRLLVPVNDADSADISTLLDASATLEEGHAKETIQDQLVGSEKLFYEEDEAGSATSCL [Q9UBN6] has a documented percentage of EdU-negative of 4.16
